These entries and their values trace back to ChEMBL document CHEMBL4261580.

Quick reference: pIC50 of the listed items.
System: HepG2
ASSAY OVERVIEW: Antiproliferative activity against human HepG2 cells after 72 hrs by MTT assay
Assay type: functional, cell-based
EXPERIMENTAL CONDITIONS: HepG2, 72 h
Remember, pIC50 is on a log scale: it is -log10 of the molar concentration.

The cases that follow already have their pIC50 on record.
COC(=O)c1ccccc1-n1cc(COC(=O)[C@]23CCC(C)(C)C[C@H]2C2=CC[C@@H]4[C@@]5(C)CC[C@H](O[C@@H]6O[C@H](CO[C@@H]7OC[C@H](O)[C@H](O)[C@@H]7O)[C@@H](O)[C@H](O)[C@H]6NC(C)=O)C(C)(C)[C@@H]5CC[C@@]4(C)[C@]2(C)CC3)nn1 : 4.16
CCOc1ccc(-n2cc(COC(=O)[C@]34CCC(C)(C)C[C@H]3C3=CC[C@@H]5[C@@]6(C)CC[C@H](O[C@@H]7O[C@H](CO[C@@H]8OC[C@H](O)[C@H](O)[C@@H]8O)[C@@H](O)[C@H](O)[C@H]7NC(C)=O)C(C)(C)[C@@H]6CC[C@@]5(C)[C@]3(C)CC4)nn2)cc1 : 4.87
CC(=O)N[C@H]1[C@H](O[C@H]2CC[C@]3(C)[C@H]4CC=C5[C@@H]6CC(C)(C)CC[C@]6(C(=O)OCc6cn(-c7ccc(C(C)=O)cc7)nn6)CC[C@@]5(C)[C@]4(C)CC[C@H]3C2(C)C)O[C@H](CO[C@@H]2OC[C@H](O)[C@H](O)[C@@H]2O)[C@@H](O)[C@@H]1O : 4.94

Incoming: Give the measured pIC50 of CC(=O)N[C@H]1[C@H](O[C@H]2CC[C@]3(C)[C@H]4CC=C5[C@@H]6CC(C)(C)CC[C@]6(C(=O)O)CC[C@@]5(C)[C@]4(C)CC[C@H]3C2(C)C)O[C@H](CO[C@@H]2OC[C@H](O)[C@H](O)[C@@H]2O)[C@@H](O)[C@@H]1O .
Outgoing: 4.94

Incoming: What does the data say about its pIC50? Entry: COc1ccc(-n2cc(COC(=O)[C@]34CCC(C)(C)C[C@H]3C3=CC[C@@H]5[C@@]6(C)CC[C@H](O[C@@H]7O[C@H](CO[C@@H]8OC[C@H](O)[C@H](O)[C@@H]8O)[C@@H](O)[C@H](O)[C@H]7NC(C)=O)C(C)(C)[C@@H]6CC[C@@]5(C)[C@]3(C)CC4)nn2)cc1
Outgoing: 4.91

Incoming: Quick one: pIC50 of CC(=O)N[C@H]1[C@H](O[C@H]2CC[C@]3(C)[C@H]4CC=C5[C@@H]6CC(C)(C)CC[C@]6(C(=O)OCc6cn(-c7ccc(Cl)cc7Cl)nn6)CC[C@@]5(C)[C@]4(C)CC[C@H]3C2(C)C)O[C@H](CO[C@@H]2OC[C@H](O)[C@H](O)[C@@H]2O)[C@@H](O)[C@@H]1O ?
Outgoing: 4.49

Incoming: Can you look up the measured pIC50 of CC(=O)N[C@H]1[C@H](O[C@H]2CC[C@]3(C)[C@H]4CC=C5[C@@H]6CC(C)(C)CC[C@]6(C(=O)OCc6cn(-c7ccccc7C)nn6)CC[C@@]5(C)[C@]4(C)CC[C@H]3C2(C)C)O[C@H](CO[C@@H]2OC[C@H](O)[C@H](O)[C@@H]2O)[C@@H](O)[C@@H]1O for me?
Outgoing: 4.29
